# TGI per entry
Tested on: SNB-75 CNS
Experiment: NCI tumour cell line growth inhibition, 48 h
metricName: TGI

[[record]]
molecule = "O=C1C=Cc2c(Br)sc(Br)c21"
value = "> 100 µM"

[[record]]
molecule = "COc1ccc(NC(=S)Nc2cc(C)cc(C)n2)cc1"
value = "> 100 µM"

[[record]]
molecule = "c1cc2c(cc1NC1=NCCO1)CCC2"
value = "> 10 µM"

[[record]]
molecule = "CC(C)=CCCc1c(C)ccc2c1C(=O)C(=O)C(C(C)C)=C2"
value = "> 22 µM"

[[record]]
molecule = "COc1cc2c(c(OC)c1O)C(=O)C(OC)C(c1ccc(O)c(O)c1)O2 (stereo unspecified)"
value = "> 79.3 µM"

[[record]]
molecule = "Cc1cc2nc(C(Cl)Cl)nc(-c3ccc(Cl)cc3)n2n1"
value = "4.34 µM"

[[record]]
molecule = "O=C(O)CCC(NC(=O)c1ccc(OCc2nc3cc(C(F)(F)F)ccc3nc2-c2ccccc2)cc1)C(=O)O (stereo unspecified)"
value = "> 100 µM"

[[record]]
molecule = "Cc1c2n(c(=O)[nH]c1=O)C1OC(CO)C(O2)C1N=[N+]=[N-] (stereo unspecified)"
value = "> 100 µM"

[[record]]
molecule = "COc1ccccc1NC(=O)CC(=O)n1nc(C)c(N=Nc2ccccc2C(=O)O)c1C"
value = "> 100 µM"

[[record]]
molecule = "CN(C)c1ccc(-c2cc(-c3ccc(Nc4nc(Nc5ccc(Cl)cc5)nc(Nc5ccc(Cl)cc5)n4)cc3)no2)cc1"
value = "28.1 µM"

[[record]]
molecule = "O=C1NC(N/N=C/C(O)C(O)C(O)C(O)CO)=N/C1=C\\c1ccco1 (stereo unspecified)"
value = "> 100 µM"

[[record]]
molecule = "Cc1c(-c2ccc(O)cc2)n(CCCCCCNCCOC(=O)NCCCc2ccc(N(CCCl)CCCl)cc2)c2ccc(O)cc12"
value = "14.1 µM"

[[record]]
molecule = "C1=CC2(C=CC13O[C@H](C1CCCCC1)[C@@H](C1CCCCC1)O3)O[C@H](C1CCCCC1)[C@@H](C1CCCCC1)O2"
value = "> 50 µM"

[[record]]
molecule = "CN(C)CCNc1ccc([N+](=O)[O-])c2sc3ccccc3c(=O)c12"
value = "35.6 µM"

[[record]]
molecule = "Cc1ccc(-c2n[nH]c(Cc3nc(-c4ccc(C)cc4)n[nH]3)n2)cc1"
value = "> 100 µM"

[[record]]
molecule = "N#CC(C#N)=c1ccc(=C2NCC3CCCN23)cc1 (stereo unspecified)"
value = "> 100 µM"

[[record]]
molecule = "Cn1ccnc1C(=O)/C=C/c1ccc(CC(=O)Nc2ccc(Br)cc2)cc1"
value = "> 16.7 µM"

[[record]]
molecule = "CC1=CC(=O)[C@@H](O)[C@]2(C)[C@H]3[C@@]4(O)OC[C@]35[C@H]([C@@H](C)[C@H]4O)[C@@H](OC(=O)C(C)(C)CO)C(=O)O[C@@H]5C[C@@H]12"
value = "2.11 µM"

[[record]]
molecule = "Oc1ccc(Cl)cc1-c1cc(-c2ccccc2Cl)[nH]n1"
value = "> 100 µM"

[[record]]
molecule = "O=c1ccn([C@@H]2C[C@H]2CO)c(=O)[nH]1"
value = "> 100 µM"

[[record]]
molecule = "CC(C)(C)c1cc(C(=O)/C=C/c2c(Cl)cccc2Cl)cc(C(C)(C)C)c1O"
value = "34.3 µM"

[[record]]
molecule = "CCCCCCCCSC1=CC(=O)c2nc3ccccc3c3ccnc1c23"
value = "> 100 µM"

[[record]]
molecule = "Cc1nc2c(nc1C)C(=O)c1ccccc1C2=O"
value = "6.15 µM"

[[record]]
molecule = "O=C1NC(N/N=C/c2ccccc2)=N/C1=C\\c1ccco1"
value = "> 100 µM"

[[record]]
molecule = "O=C1NC2(CCCCC2)C2CCCCC(O)C12 (stereo unspecified)"
value = "> 100 µM"

[[record]]
molecule = "Cc1ccc(N=N/C(=N/NC(=O)c2cc(Cl)ccc2O)c2ccc(N(CCC#N)CCC#N)cc2C)cc1"
value = "86.8 µM"

[[record]]
molecule = "CCc1ccc2c(c1)C(=O)c1c-2n(CCCBr)c(=O)c2cc([N+](=O)[O-])ccc12"
value = "19.9 µM"

[[record]]
molecule = "COc1cc2nc(C)nc(N[C@H](C)c3cc(N)cc(C(F)(F)F)c3)c2cc1O[C@H]1CCOC1"
value = "23.3 µM"

[[record]]
molecule = "CCNC1C2(CCCCC2)NC(=O)C12CCCCC2 (stereo unspecified)"
value = "> 100 µM"

[[record]]
molecule = "CC1=C(C#N)C23C(=O)c4ccccc4C(O)=C2C(=O)C=CC3(O)N1Cc1ccccc1 (stereo unspecified)"
value = "> 100 µM"

[[record]]
molecule = "N#CC(C#N)=C1C(=Cc2ccc(OCCCCCCCCCCSSCCCCCCCCCCOc3ccc(C=C4C(=C(C#N)C#N)c5ccccc5C4=C(C#N)C#N)cc3)cc2)C(=C(C#N)C#N)c2ccccc21"
value = "> 100 µM"


====

System: UACC-62 melanoma
Assay: NCI tumour cell line growth inhibition, 48 h
metricName: TGI

[[record]]
molecule = "CN(CC(=O)N1CC(CCl)c2ccc([N+](=O)[O-])cc21)CC(=O)N1CC(CCl)c2ccc([N+](=O)[O-])cc21 (stereo not given)"
metricname = "TGI"
value = "> 100 µM"

[[record]]
molecule = "S=C1NCCN1"
metricname = "TGI"
value = "> 100 µM"

[[record]]
molecule = "Nn1c(CCCCCCCCc2nnc(COc3ccc(Cl)cc3Cl)n2N)nnc1COc1ccc(Cl)cc1Cl"
metricname = "TGI"
value = "> 100 µM"

[[record]]
molecule = "Cc1ccc(Cc2n[nH]c(=O)[nH]2)cc1"
metricname = "TGI"
value = "> 100 µM"

[[record]]
molecule = "CCCCCCNC(=O)C(C)C1CCC2(C)C=CC(=O)C(C)=C2C1O (stereo not given)"
metricname = "TGI"
value = "> 100 µM"


====

# TGI per entry
Test system: MOLT-4 leukemia
Test: NCI tumour cell line growth inhibition, 48 h
metricName: TGI

[[record]]
compound = "N=C(N)c1ccc(/C=C/c2ccc(C(=N)N)cc2)cc1"
metricname = "TGI"
value = "> 100 µM"

[[record]]
compound = "COc1c2ccoc2c(/C=C/C=O)c2oc(-c3ccccc3)cc(=O)c12"
metricname = "TGI"
value = "5.24 µM"

[[record]]
compound = "O=C1NC(N/N=C/C(O)C(O)C(O)C(O)CO)=N/C1=C\\c1ccco1 (configuration not stated)"
metricname = "TGI"
value = "> 100 µM"

[[record]]
compound = "CN(C)c1ccc(C2CC(c3ccc4ccccc4c3O)=NN2)cc1 (configuration not stated)"
metricname = "TGI"
value = "92 µM"

[[record]]
compound = "CCN(CC)CC(C(=O)Nc1c(C)cccc1C)/C(C)=N\\NC(=O)C[N+](C)(C)C (configuration not stated)"
metricname = "TGI"
value = "> 100 µM"

[[record]]
compound = "CO[C@]1(c2ccc([N+](=O)[O-])cc2)Oc2ccccc2C(=O)[C@@]1(Nc1ccc(C=O)cc1)OC"
metricname = "TGI"
value = "> 10 µM"

[[record]]
compound = "O=C(N/C(=C\\c1cc(Cl)ccc1Cl)c1nc2[nH]c(=S)[nH]c(=O)c2[nH]1)c1ccccc1"
metricname = "TGI"
value = "> 80.8 µM"


====

Test system: RXF 393 renal
Assay: NCI tumour cell line growth inhibition, 48 h
# TGI per entry
metricName: TGI

[[record]]
molecule = "Cc1ccc2c(c1)[nH]c(=S)n2C=C(C(N)=O)C(N)=O"
target = "RXF 393 renal"
value = "> 100 µM"

[[record]]
molecule = "O[C@H]1[C@H]2c3cc4c(cc3CN3CCC(=C[C@@H]1O)[C@H]23)OCO4"
target = "RXF 393 renal"
value = "2.6 µM"

[[record]]
molecule = "COc1cc2c(c(OC)c1O)-c1ccc(SC)c(=O)cc1C(NC(C)=O)CC2 (stereo not drawn)"
target = "RXF 393 renal"
value = "> 100 µM"

[[record]]
molecule = "C=Cc1nc2c(Cl)ncnc2n1Cc1ccccc1"
target = "RXF 393 renal"
value = "7.84 µM"

[[record]]
molecule = "CCOC(=O)C1=C(C)CC2C(=O)OC(=O)C2C1(C)C (stereo not drawn)"
target = "RXF 393 renal"
value = "> 100 µM"

[[record]]
molecule = "Cc1ccc(-c2n[nH]c(Cc3nc(-c4ccc(C)cc4)n[nH]3)n2)cc1"
target = "RXF 393 renal"
value = "> 100 µM"

[[record]]
molecule = "CCCCCCCC(=O)SCC/C=C/[C@@H]1CC(=O)NCc2cccc(n2)C2=N[C@@](C)(CS2)C(=O)N[C@@H](C(C)C)C(=O)N1"
target = "RXF 393 renal"
value = "19.9 µM"

[[record]]
molecule = "C/C(CCn1[nH]c(=O)ccc1=O)=N\\O"
target = "RXF 393 renal"
value = "> 100 µM"

[[record]]
molecule = "CCc1ccc2c(c1)C(=O)c1c-2n(CCCBr)c(=O)c2cc([N+](=O)[O-])ccc12"
target = "RXF 393 renal"
value = "> 50 µM"

[[record]]
molecule = "O=C(O)c1cc(C(=O)O)cc(N2C(=O)c3ccccc3C2=O)c1"
target = "RXF 393 renal"
value = "> 100 µM"

[[record]]
molecule = "Cc1ccc(S(=O)(=O)NC(=O)NC(CC(N)=O)C(=O)O)cc1 (stereo not drawn)"
target = "RXF 393 renal"
value = "> 100 µM"

[[record]]
molecule = "NC(=O)C(=CNC(N)=S)C(N)=O"
target = "RXF 393 renal"
value = "> 100 µM"

[[record]]
molecule = "S=C(N1CCN(c2ccc(Cl)c(Cl)c2)CC1)N1CCN(c2ccc(Cl)c(Cl)c2)CC1"
target = "RXF 393 renal"
value = "35.1 µM"

[[record]]
molecule = "CCOC(=O)c1ncn2c1[nH]c(=S)c1ccccc12"
target = "RXF 393 renal"
value = "> 100 µM"

[[record]]
molecule = "COc1cc(/C=C/c2cc(/C=C/c3ccc(O)c(OC)c3)n(C(=O)Nc3ccc(F)cc3)n2)ccc1O"
target = "RXF 393 renal"
value = "0.994 µM"

[[record]]
molecule = "CSC(=N/C=C/c1ccccc1)SC"
target = "RXF 393 renal"
value = "> 100 µM"

[[record]]
molecule = "CC(=O)OC1COC(n2c(=S)n(-c3ccc(C)cc3)c(=O)c3ccccc32)C(OC(C)=O)C1OC(C)=O (stereo not drawn)"
target = "RXF 393 renal"
value = "> 100 µM"

[[record]]
molecule = "COc1ccc(/C=C\\c2cc(OC)c3c(c2)OCO3)c(O)c1O"
target = "RXF 393 renal"
value = "11.7 µM"

